- SYSTEM_UNDER_TEST: Somatostatin receptor
- ASSAY_NAME: Displacement of [125I-Tyr-11]-SRIF from SSTR of human NCI-H69 cell membranes
As shown below, each of these compounds has a reported IC50 value.
The response must be a number in nM with no trailing unit.

Which IC50 value is on record for "C[C@@H](O)[C@H](NC(=O)[C@H](CS)NC(=O)[C@H](Cc1ccc(N)cc1)NC(=O)[C@@H](N)CNC(=O)CSCC[C@H]1C(=O)N[C@@H](Cc2ccc(O)cc2)C(=O)N[C@H](Cc2c[nH]c3ccccc23)C(=O)N[C@@H](CCCCN)C(=O)N[C@@H]([C@@H](C)O)C(=O)N[C@@H](Cc2ccccc2)C(=O)N1C)C(=O)N[C@@H](CO)C(=O)O" ?
0.2

Which IC50 is reported for this compound? "C[C@@H](O)[C@@H]1NC(=O)[C@H](CCCCN)NC(=O)[C@@H](Cc2c[nH]c3ccccc23)NC(=O)[C@H](Cc2ccc(O)cc2)NC(=O)[C@H](CCSCC(=O)NC[C@H](N)C(=O)N[C@@H](Cc2ccc(N)cc2)C(=O)N[C@@H](CS)C(=O)N[C@H](CO)[C@@H](C)O)N(C)C(=O)[C@H](Cc2ccccc2)NC1=O"
0.5

Report IC50 for "C[C@@H](O)[C@@H]1NC(=O)[C@H](CCCCN)NC(=O)[C@@H](Cc2c[nH]c3ccccc23)NC(=O)[C@H](Cc2ccc(O)cc2)NC(=O)[C@H](CCSCC(=O)NC[C@H](N)C(=O)N[C@@H](CO)C(=O)N[C@@H](CS)C(=O)N[C@H](CO)[C@@H](C)O)N(C)C(=O)[C@H](Cc2ccccc2)NC1=O" please.
1.6

Give its IC50 value. Item: "C[C@@H](O)[C@H](NC(=O)[C@H](CS)NC(=O)[C@H](Cc1ccc(N)cc1)NC(=O)[C@@H](N)CNC(=O)CSCC[C@H]1C(=O)N[C@@H](Cc2ccc(O)cc2)C(=O)N[C@H](Cc2c[nH]c3ccccc23)C(=O)N[C@@H](CCCCN)C(=O)N[C@@H]([C@@H](C)O)C(=O)N[C@@H](Cc2ccccc2)C(=O)N1C)C(=O)O"
0.64

Dear colleague, I am looking for the recorded IC50 of the following compound: "C[C@@H](O)[C@H](NC(=O)CSCC[C@H]1C(=O)N[C@@H](Cc2ccc(O)cc2)C(=O)N[C@H](Cc2c[nH]c3ccccc23)C(=O)N[C@@H](CCCCN)C(=O)N[C@@H]([C@@H](C)O)C(=O)N[C@@H](Cc2ccccc2)C(=O)N1C)C(=O)NCC(=O)NCC(=O)N[C@@H](CS)C(N)=O"
1.6

Sample "C[C@@H](O)[C@@H]1NC(=O)[C@H](CCCCN)NC(=O)[C@@H](Cc2c[nH]c3ccccc23)NC(=O)[C@H](Cc2ccc(O)cc2)NC(=O)[C@H](CCSCC(=O)NC[C@H](N)C(=O)N[C@@H](CCCCN)C(=O)N[C@@H](CS)C(=O)N[C@H](CO)[C@@H](C)O)N(C)C(=O)[C@H](Cc2ccccc2)NC1=O" — what was its IC50?
0.35

###

- SYSTEM_UNDER_TEST: Somatostatin receptor
- ASSAY_NAME: Displacement of [125I]SRIF-14 from SSTR of rat AR42J cell membranes
- Design: species or system Membrane
- CONDITION_PARAMETERS: ar-42j
Response field label takes Fulfilled when IC50 is strictly below 0.4 nM and Not fulfilled in all other cases.

C[C@@H](O)[C@@H]1NC(=O)[C@H](CCCCN)NC(=O)[C@H](Cc2c[nH]c3ccccc23)NC(=O)[C@H](Cc2ccc(O)cc2)NC(=O)[C@@H](CCS)N(C)C(=O)[C@H](Cc2ccccc2)NC1=O
Fulfilled
CC(C)[C@@H]1NC(=O)[C@H](CCCCN)NC(=O)[C@H](Cc2c[nH]c3ccccc23)NC(=O)[C@H](Cc2ccc(O)cc2)NC(=O)[C@@H](Cc2ccccc2)N(C)C(=O)[C@H](CCS)NC1=O
Not fulfilled
C[C@@H](O)[C@@H]1NC(=O)[C@H](CCCCN)NC(=O)[C@H](Cc2c[nH]c3ccccc23)NC(=O)[C@H](Cc2ccc(O)cc2)NC(=O)[C@@H](CCS)NC(=O)[C@H](Cc2ccccc2)N(C)C1=O
Not fulfilled

Next:
Given the entry "CC(C)[C@@H]1NC(=O)[C@H](CCCCN)NC(=O)[C@H](Cc2c[nH]c3ccccc23)NC(=O)[C@H](Cc2ccc(O)cc2)NC(=O)[C@@H](CCS)N(C)C(=O)[C@H](Cc2ccccc2)NC1=O" , would its reported IC50 be below 0.4 nM?
Not fulfilled

Data provenance: ChEMBL document CHEMBL1142948
